- Measured Target: p97 (Homo sapiens, UniProt P55072)
- Sequence (P55072 2-806): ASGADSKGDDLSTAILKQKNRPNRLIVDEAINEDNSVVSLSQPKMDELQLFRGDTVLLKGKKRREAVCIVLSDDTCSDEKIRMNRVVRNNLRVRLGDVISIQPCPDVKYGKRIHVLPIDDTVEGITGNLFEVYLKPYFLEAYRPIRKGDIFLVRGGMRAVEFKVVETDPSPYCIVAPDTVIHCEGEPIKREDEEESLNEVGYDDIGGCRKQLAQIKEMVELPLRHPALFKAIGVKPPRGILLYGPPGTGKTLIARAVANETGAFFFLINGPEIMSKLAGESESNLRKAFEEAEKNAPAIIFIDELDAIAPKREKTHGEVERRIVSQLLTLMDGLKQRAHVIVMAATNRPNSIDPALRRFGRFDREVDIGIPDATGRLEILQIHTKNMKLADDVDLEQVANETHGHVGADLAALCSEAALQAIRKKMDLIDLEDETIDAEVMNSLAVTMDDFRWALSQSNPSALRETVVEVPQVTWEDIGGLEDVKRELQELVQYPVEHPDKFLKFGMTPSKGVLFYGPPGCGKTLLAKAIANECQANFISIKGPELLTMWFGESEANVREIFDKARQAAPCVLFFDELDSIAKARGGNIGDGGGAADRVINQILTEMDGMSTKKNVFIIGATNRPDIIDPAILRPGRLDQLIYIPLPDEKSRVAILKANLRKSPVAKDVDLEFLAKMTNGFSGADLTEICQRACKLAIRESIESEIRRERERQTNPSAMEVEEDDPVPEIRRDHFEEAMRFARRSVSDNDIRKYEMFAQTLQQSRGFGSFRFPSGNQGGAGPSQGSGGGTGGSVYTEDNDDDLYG
- Experiment Notes: malachite green ATPase assay, dose-response
- Format: biochemical
Reported pIC50 by item:
Schema: pIC50 number; meaning minus log10 of the concentration expressed in molar units.

{"Compound": "C[C@H]1CCC/C=C/C(=O)c2c(O)c(Cl)c(O)c(Cl)c2CC(=O)O1 [compound 4, 4,6-dichloro-10(11)-dehydrocurvularin]", "Measured Target": "p97 (Homo sapiens, UniProt P55072)", "pIC50": 4.86}

Now turn to the next compound.
Summary for this compound, C[C@H]1CCC/C=C/C(=O)c2c(cc(O)c(Cl)c2O)CC(=O)O1 [compound 3, 6-chloro-10(11)-dehydrocurvularin] : pIC50 is 4.61
